# MIC50 values compiled below
Test system: HeLa
Experiment: Minimum inhibitory concentration against coxsackie virus B4 was determined
Type: functional
Details: Homo sapiens
test.readout: MIC50 (µg/mL)

> print(dat)
                                   compound  system  test.readout  operator.symbol  number
1  NC1=NC=NC2C1N=CN2[C@H]1CCCC[C@H]1CO (some centres undefined)    HeLa         MIC50                >      80
2  NC1=NC2C(N=CN2[C@H]2CCCC[C@H]2CO)C(Cl)=N1 (some centres undefined)    HeLa         MIC50                =     120
3  OC[C@@H]1CCCC[C@@H]1N1C=NC2C(Cl)=NC=NC21 (some centres undefined)    HeLa         MIC50                >      80
4  NC(=O)c1ncn([C@@H]2O[C@H](CO)[C@@H](O)[C@H]2O)n1    HeLa         MIC50                =      48

---

System: HeLa
Test: Minimum inhibitory concentration against respiratory syncytial virus was determined
Type: functional
Conditions: Homo sapiens
test.readout: MIC50 (µg/mL)

> print(dat)
                                   compound  system  operator.symbol  number
1  OC[C@@H]1CCCC[C@@H]1N1C=NC2C(Cl)=NC=NC21 (some centres undefined)    HeLa                >      80
2  NC1=NC=NC2C1N=CN2[C@H]1CCCC[C@H]1CO (some centres undefined)    HeLa                =     3.2
3  NC1=NC2C(N=CN2[C@H]2CCCC[C@H]2CO)C(Cl)=N1 (some centres undefined)    HeLa                =       8
4  NC(=O)c1ncn([C@@H]2O[C@H](CO)[C@@H](O)[C@H]2O)n1 [RIBAVIRIN]    HeLa                =    1.92

Reference for the values: ChEMBL document CHEMBL1144367
